ASSAY COMMENT: Stability of linkers L1-L4 conjugated to FGF21 (LC-MS)
Type: physicochemical
RUN CONDITIONS: linker conjugated to FGF21ΔH-A129C, +4° C.; 0 hrs
Measured +(2) H2O (double hydrolysis), listed per entry.
Write the answer as a number in %, unit excluded.

Worked examples follow.
[[record]]
compound = "CC1=CC(=O)N(CCOCCOCCC(=O)Nc2ccc(CCC(=O)N3CCC3=O)cc2)C1=O"
measured_metric = "+(2) H2O (double hydrolysis)"
reported_measurement = 6

[[record]]
compound = "O=C(CCN1C(=O)C=CC1=O)NCCOCCOCCC(=O)Nc1ccc(CCC(=O)N2CCC2=O)cc1"
measured_metric = "+(2) H2O (double hydrolysis)"
reported_measurement = 8

[[record]]
compound = "CC1=CC(=O)N(CCC(=O)NCCOCCOCCC(=O)Nc2ccc(CCC(=O)N3CCC3=O)cc2)C1=O"
measured_metric = "+(2) H2O (double hydrolysis)"
reported_measurement = 6


Pending compound:
Incoming: Specify reported +(2) H2O (double hydrolysis) for the compound shown: CC1=CC(=O)N(CC2CCC(C(=O)NCCOCCOCCC(=O)Nc3ccc(CCC(=O)N4CCC4=O)cc3)CC2)C1=O (stereo not shown)
Outgoing: 6

###

ASSAY COMMENT: Stability of linkers L1-L4 conjugated to FGF21 (LC-MS)
Type: physicochemical
RUN CONDITIONS: linker conjugated to FGF21ΔH-A129C, +4° C.; 24 hrs
MEASURED METRIC: 1 linker (protein+linker conjugation) (%)
Write the answer as a number in %, unit excluded.

Worked examples follow.
[[record]]
molecule = "O=C(CCN1C(=O)C=CC1=O)NCCOCCOCCC(=O)Nc1ccc(CCC(=O)N2CCC2=O)cc1 [Compound L1]"
measured_metric = "1 linker (protein+linker conjugation)"
reported_measurement = 41

[[record]]
molecule = "CC1=CC(=O)N(CC2CCC(C(=O)NCCOCCOCCC(=O)Nc3ccc(CCC(=O)N4CCC4=O)cc3)CC2)C1=O (stereo not shown) [Compound L4]"
measured_metric = "1 linker (protein+linker conjugation)"
reported_measurement = 46

[[record]]
molecule = "CC1=CC(=O)N(CCOCCOCCC(=O)Nc2ccc(CCC(=O)N3CCC3=O)cc2)C1=O [Compound L3]"
measured_metric = "1 linker (protein+linker conjugation)"
reported_measurement = 47


Pending molecule:
Incoming: Specify reported 1 linker (protein+linker conjugation) for the molecule shown: CC1=CC(=O)N(CCC(=O)NCCOCCOCCC(=O)Nc2ccc(CCC(=O)N3CCC3=O)cc2)C1=O [Compound L2]
Outgoing: 43

###

ASSAY COMMENT: Stability of linkers L1-L4 conjugated to FGF21 (LC-MS)
Type: physicochemical
RUN CONDITIONS: linker conjugated to FGF21ΔH-A129C, +4° C.; 168 hrs
Protocol: The following experiment was performed to investigate the chemical stability over 2 weeks of the four linkers upon conjugation to FGF21: each linker was conjugated to FGF21, placed at +4° C. storage conditions, and aliquots were removed and quenched by freezing at specific time points, and linker stability was monitored by LCMS analysis. The four linkers were dissolved in DMSO from lyophilized stock material. […] L1 was reacted with protein for 30 mins; L2, L3 and L4 were reacted for 2 hrs. […]
MEASURED METRIC: 0 linker (unconjugated protein) (%)
Write the answer as a number in %, unit excluded.

[[record]]
molecule = "O=C(CCN1C(=O)C=CC1=O)NCCOCCOCCC(=O)Nc1ccc(CCC(=O)N2CCC2=O)cc1 [Compound L1]"
u = "%"
reported_measurement = 10

[[record]]
molecule = "CC1=CC(=O)N(CCOCCOCCC(=O)Nc2ccc(CCC(=O)N3CCC3=O)cc2)C1=O [Compound L3]"
u = "%"
reported_measurement = 19

[[record]]
molecule = "CC1=CC(=O)N(CCC(=O)NCCOCCOCCC(=O)Nc2ccc(CCC(=O)N3CCC3=O)cc2)C1=O [Compound L2]"
u = "%"
reported_measurement = 24


Pending molecule:
Incoming: Specify reported 0 linker (unconjugated protein) for the molecule shown: CC1=CC(=O)N(CC2CCC(C(=O)NCCOCCOCCC(=O)Nc3ccc(CCC(=O)N4CCC4=O)cc3)CC2)C1=O (stereo not shown) [Compound L4]
Outgoing: 21

###

ASSAY COMMENT: Stability of linkers L1-L4 conjugated to FGF21 (LC-MS)
Format: physicochemical
RUN CONDITIONS: linker conjugated to FGF21ΔH-A129C, +4° C.; 168 hrs
MEASURED METRIC: +(1) H2O (single hydrolysis) (%)
Write the answer as a number in %, unit excluded.

Worked examples follow.
[[record]]
molecule = "CC1=CC(=O)N(CCOCCOCCC(=O)Nc2ccc(CCC(=O)N3CCC3=O)cc2)C1=O"
u = "%"
reported_measurement = 29

[[record]]
molecule = "CC1=CC(=O)N(CC2CCC(C(=O)NCCOCCOCCC(=O)Nc3ccc(CCC(=O)N4CCC4=O)cc3)CC2)C1=O (stereo not shown)"
u = "%"
reported_measurement = 32


Incoming: Specify reported +(1) H2O (single hydrolysis) for the molecule shown: O=C(CCN1C(=O)C=CC1=O)NCCOCCOCCC(=O)Nc1ccc(CCC(=O)N2CCC2=O)cc1
Outgoing: 40

Incoming: Specify reported +(1) H2O (single hydrolysis) for the molecule shown: CC1=CC(=O)N(CCC(=O)NCCOCCOCCC(=O)Nc2ccc(CCC(=O)N3CCC3=O)cc2)C1=O
Outgoing: 29

###

ASSAY COMMENT: Stability of linkers L1-L4 conjugated to FGF21 (LC-MS)
Type: physicochemical
RUN CONDITIONS: linker conjugated to FGF21ΔH-A129C, +4° C.; 336 hrs (2 weeks)
Measured +(2) H2O (double hydrolysis), listed per entry.
Write the answer as a number in %, unit excluded.

Worked examples follow.
[[record]]
molecule = "CC1=CC(=O)N(CCOCCOCCC(=O)Nc2ccc(CCC(=O)N3CCC3=O)cc2)C1=O"
reported_measurement = 8

[[record]]
molecule = "CC1=CC(=O)N(CCC(=O)NCCOCCOCCC(=O)Nc2ccc(CCC(=O)N3CCC3=O)cc2)C1=O"
reported_measurement = 8

[[record]]
molecule = "CC1=CC(=O)N(CC2CCC(C(=O)NCCOCCOCCC(=O)Nc3ccc(CCC(=O)N4CCC4=O)cc3)CC2)C1=O (stereo not shown)"
reported_measurement = 6


Incoming: Specify reported +(2) H2O (double hydrolysis) for the molecule shown: O=C(CCN1C(=O)C=CC1=O)NCCOCCOCCC(=O)Nc1ccc(CCC(=O)N2CCC2=O)cc1
Outgoing: 18

###

ASSAY COMMENT: Stability of linkers L1-L4 conjugated to FGF21 (LC-MS)
Format: physicochemical
RUN CONDITIONS: linker conjugated to FGF21ΔH-A129C, +4° C.; 336 hrs
Measured 1 linker (protein+linker conjugation), listed per entry.
Write the answer as a number in %, unit excluded.

Incoming: Specify reported 1 linker (protein+linker conjugation) for the molecule shown: CC1=CC(=O)N(CC2CCC(C(=O)NCCOCCOCCC(=O)Nc3ccc(CCC(=O)N4CCC4=O)cc3)CC2)C1=O (stereo not shown)
Outgoing: 41

###

ASSAY COMMENT: Stability of linkers L1-L4 conjugated to FGF21 (LC-MS)
Assay type: physicochemical
RUN CONDITIONS: linker conjugated to FGF21ΔH-A129C, +4° C.; 72 hrs
MEASURED METRIC: 0 linker (unconjugated protein) (%)
Write the answer as a number in %, unit excluded.

[[record]]
compound = "CC1=CC(=O)N(CCC(=O)NCCOCCOCCC(=O)Nc2ccc(CCC(=O)N3CCC3=O)cc2)C1=O [Compound L2]"
u = "%"
reported_measurement = 24


Incoming: Specify reported 0 linker (unconjugated protein) for the compound shown: O=C(CCN1C(=O)C=CC1=O)NCCOCCOCCC(=O)Nc1ccc(CCC(=O)N2CCC2=O)cc1 [Compound L1]
Outgoing: 14

Incoming: Specify reported 0 linker (unconjugated protein) for the compound shown: CC1=CC(=O)N(CC2CCC(C(=O)NCCOCCOCCC(=O)Nc3ccc(CCC(=O)N4CCC4=O)cc3)CC2)C1=O (stereo not shown) [Compound L4]
Outgoing: 21

Incoming: Specify reported 0 linker (unconjugated protein) for the compound shown: CC1=CC(=O)N(CCOCCOCCC(=O)Nc2ccc(CCC(=O)N3CCC3=O)cc2)C1=O [Compound L3]
Outgoing: 19
